- Test system: STREPTOCOCCUS BOVIS A-5169
- assayOverview: In vitro antibacterial activity, MIC, BHI agar dilution
- Assay type: cell-based
- experimentalParameters: S. bovis A-5169, unit assumed
property: MIC (µg/mL)

molecule | property | boundType | measValue
CC[C@H]1OC(=O)[C@H](C)C(=O)[C@H](C)[C@@H](O[C@@H]2O[C@H](C)C[C@H](N(C)C)[C@H]2O)[C@](C)(OC)C[C@@H](C)C2=N[C@H](CN3CCN(C)CC3)CN3C(=O)O[C@@]1(C)[C@H]3[C@H]2C | MIC | = | 0.02
CC[C@H]1OC(=O)[C@H](C)C(=O)[C@H](C)[C@@H](O[C@@H]2O[C@H](C)C[C@H](N(C)C)[C@H]2O)[C@](C)(OC)C[C@@H](C)C2=N[C@H](COCc3cccnc3)CN3C(=O)O[C@@]1(C)[C@H]3[C@H]2C | MIC | = | 0.05
CC[C@H]1OC(=O)[C@H](C)C(=O)[C@H](C)[C@@H](O[C@@H]2O[C@H](C)C[C@H](N(C)C)[C@H]2O)[C@](C)(OC)C[C@@H](C)C2=N[C@H](COCc3ccnc4ccccc34)CN3C(=O)O[C@@]1(C)[C@H]3[C@H]2C | MIC | = | 0.01
CCOC(=O)CCN1CC2N=C3C(C)CC(C)(OC)C(OC4OC(C)CC(N(C)C)C4O)C(C)C(=O)C(C)C(=O)OC(CC)C4(C)OC(=O)N(C2C1)C4C3C (stereo not drawn) | MIC | = | 0.1
CC[C@H]1OC(=O)[C@H](C)C(=O)[C@H](C)[C@@H](O[C@@H]2O[C@H](C)C[C@H](N(C)C)[C@H]2O)[C@](C)(OC)C[C@@H](C)C2=NCC(CN(C)Cc3ccccc3)N3C(=O)O[C@@]1(C)[C@H]3[C@H]2C (stereo partly drawn) | MIC | = | 0.01
CC[C@H]1OC(=O)[C@H](C)C(=O)[C@H](C)[C@@H](O[C@@H]2O[C@H](C)C[C@H](N(C)C)[C@H]2O)[C@](C)(OC)C[C@@H](C)C2=N[C@@H]3CCC[C@@H]3N3C(=O)O[C@@]1(C)[C@H]3[C@H]2C | MIC | = | 0.02
CC[C@H]1OC(=O)[C@H](C)C(=O)[C@H](C)[C@@H](O[C@@H]2O[C@H](C)C[C@H](N(C)C)[C@H]2O)[C@](C)(OC)C[C@@H](C)C2=NC[C@H](COCc3cccc(F)c3)N3C(=O)O[C@@]1(C)[C@H]3[C@H]2C | MIC | ≤ | 0.005
CC[C@H]1OC(=O)[C@H](C)C[C@H](C)[C@@H](O[C@@H]2O[C@H](C)C[C@H](N(C)C)[C@H]2O)[C@](C)(OC)C[C@@H](C)C2=NCCN3C(=O)O[C@@]1(C)[C@H]3[C@H]2C | MIC | = | 0.39
CCC1OC(=O)C(C)C(=O)C(C)C(OC2OC(C)CC(N(C)C)C2O)C(C)(OC)CC(C)C2=NCC(COCc3ccccc3F)N3C(=O)OC1(C)C3C2C (stereo not drawn) | MIC | = | 0.01

----------
- Test system: STAPHYLOCOCCUS AUREUS CMX 553
- assayOverview: In vitro antibacterial activity, MIC, BHI agar dilution
- Type: cell-based
- experimentalParameters: S. aureus CMX 553, unit assumed
One threshold, 0.4 µg/mL, splits the recorded MIC values: lower ones are 1, equal or higher ones are -1.

compound | labelClass
CC[C@H]1OC(=O)[C@H](C)C(=O)[C@H](C)[C@@H](O[C@@H]2O[C@H](C)C[C@H](N(C)C)[C@H]2O)[C@](C)(OC)C[C@@H](C)C2=NC3COCC3N3C(=O)O[C@@]1(C)[C@H]3[C@H]2C (some centres unmarked) | -1
CC[C@H]1OC(=O)[C@H](C)[C@@H](O[C@H]2C[C@@](C)(OC)[C@@H](O)[C@H](C)O2)[C@H](C)[C@@H](O[C@@H]2O[C@H](C)C[C@H](N(C)C)[C@H]2O)[C@](C)(O)C[C@@H](C)C(=O)[C@H](C)[C@@H](O)[C@]1(C)O [Ery A, Erythromycin A, reference compound] | 1
CC[C@H]1OC(=O)[C@H](C)C(=O)[C@H](C)[C@@H](O[C@@H]2O[C@H](C)C[C@H](N(C)C)[C@H]2O)[C@](C)(OC)C[C@@H](C)C2=NC3CN(Cc4ccccc4)CC3N3C(=O)O[C@@]1(C)[C@H]3[C@H]2C (some centres unmarked) | 1
CC[C@H]1OC(=O)[C@H](C)C(=O)[C@H](C)[C@@H](O[C@@H]2O[C@H](C)C[C@H](N(C)C)[C@H]2O)[C@](C)(OC)C[C@@H](C)C2=N[C@H](COCc3ccccc3F)CN3C(=O)O[C@@]1(C)[C@H]3[C@H]2C | 1
CC[C@H]1OC(=O)[C@H](C)C(=O)[C@H](C)[C@@H](O[C@@H]2O[C@H](C)C[C@H](N(C)C)[C@H]2O)[C@](C)(OC)C[C@@H](C)C2=N[C@@H]3CN(C(=O)OCc4ccccc4)C[C@@H]3N3C(=O)O[C@@]1(C)[C@H]3[C@H]2C | -1
CC[C@H]1OC(=O)[C@H](C)C(=O)[C@H](C)[C@@H](O[C@@H]2O[C@H](C)C[C@H](N(C)C)[C@H]2O)[C@](C)(OC)C[C@@H](C)C2=NC[C@H](Cc3ccc(NC(=O)OCc4ccccc4)cc3)N3C(=O)O[C@@]1(C)[C@H]3[C@H]2C | 1

These data points were gathered from patent US6274715A.
